# Test system: MS2 coat protein
# method-description: apparent KD of MS2 coat protein; designed switch direction (-1 OFF switch, 1 ON switch): -1; higher = weaker reporter binding
# setup-conditions: input ligand: none
# apparent KD of MS2 coat protein per entry
The reply should be a number in nM, with the unit left off.

In the examples that follow, each entry is paired with its recorded apparent KD of MS2 coat protein.
biopolymer-sequence	apparent KD of MS2 coat protein, nM
ACUGGUCGAGGAUAUACAUGAGGAUCACCCAUGUGGUCACGUGACGAUAGUCACGAAUGUAGAAGGCGACCAGU [E3/3-A2] (Eterna round: R97, puzzle: Exclusion 3)	123
GUCGUGUUAGGAUAUGCAUGUGGACGAUGUUCUCCGCCGGUGUAGAAGGAACAUGAGGAUCACCCAUGUGCCUA [Eternabot (L1) Solution 79] (Eterna round: R97, puzzle: Exclusion 4)	52.5
UUUCUUCAUAUCACAUGAGGAUCACCCAUGUUAUUCAUCGCGUAGGAUAUCGAGAAUUUUAAAUACGAGAAGGACGUAUUGAUA [JR_ExcNG3_Sub072] (Eterna round: R96, puzzle: Exclusion NG 3)	38.8
GCAGUAUGAGUUAGGAUAUGAUGAUUUAAAAUAAAUCAGAAGGAACUUGAGGAUCACCCAAGUAAAGAAUUGGU [JR_BMEx4_Sub071] (Eterna round: R97, puzzle: Brourd's mod of Exclusion 4)	22.1
UAUGUGUCAGGAUAUUAAUUAGAACAGAAUUUAACAAUAAUUAAGAAGGGACAUGAGGAUCACCCAUGUUCAUC [JR_Ex4_Sub023] (Eterna round: R97, puzzle: Exclusion 4)	23.3
CCCAUGUCAGGAUAUUAAUUGAGCAGGAAGCCCUGUUCACUUGAGAAGGGACAUGAGGAUCACCCAUGUAAAAC [Aesvea] (Eterna round: R97, puzzle: Exclusion 4)	384

# evaluate next
Query block: Answer with the recorded apparent KD of MS2 coat protein for the sequence listed here: GUUGUGUAAGGAUAUGCCUGGCCGUGAGGCCAGAUUGAGUGGCAGAAGGUACAUGAGGAUCACCCAUGUACGGG [salish99_ex4_4_003] (Eterna round: R97, puzzle: Exclusion 4)
Result block: 26.8

* * *

# Tested on: MS2 coat protein
# method-description: apparent KD of MS2 coat protein; designed switch direction (-1 OFF switch, 1 ON switch): -1; higher = weaker reporter binding
# setup-conditions: input ligand: microRNA oligo, concentration not stated
Respond with YES for apparent KD of MS2 coat protein values of 90 nM and above, NO for values below.

biopolymer-sequence	category
CUAGAUCUUCGGAUCUAGGACAUGAGGAUCACCCAUGUCACGAGCAGAUCUUCAUGCAAGCUUUUUGCUCGUCUUAU [Sensor v3 - Turn-off variant 1 - 37] (Eterna round: R96, puzzle: Sensor v3, turn-off variant 1)	YES
GUUGUUUAUGUAGGAUAUGCCUGGCGUGCCUUUGCAGAAGGACAUGAGGAUCACCCAUGUAACAUGAGGCUCACCCAUGUCGCG [salish99_ExNG1_r04_109] (Eterna round: R96, puzzle: Exclusion NG 1)	YES
UUAAAUCAUGUAGGAUAUGCGUGGCGAAGCUAUGCAGAAGGACAUGAGGAUCACCCAUGUUCUAGCGUCCGCGUACGGAUGCAA [JL Eng1 1.21 mod 10] (Eterna round: R96, puzzle: Exclusion NG 1)	NO
AGGUGCUUCAGGAGACAUGAGGAUCACCCAUGUUGAGUUAGCGAGGAUAUCGGUAACCAUUGUGAUGAGAAGGCGCAAACCAGA [Ex NG3 #44] (Eterna round: R96, puzzle: Exclusion NG 3)	NO
AGAGAAUACUCAGGAUAUCUUAAUAGAAAGAAUAGAGAAGGGAGACAUGAGGAUCACCCAUGUGAAGUCUUGAGACUACAUGGU [Prohibition 29 - Jieux - Exclusion NG 1] (Eterna round: R96, puzzle: Exclusion NG 1)	YES

# ---- query sequence ----
Query block: Hi, just wondering whether UUGUUAUGUGUAGGAUAUGCAUAUUAUUAUUAUGCAGAAGGACAUGAGGAUCACCCAUGUAUAUUAUUAUUAUAUGUUAUAUAU [Title] (Eterna round: R96, puzzle: Exclusion NG 1) shows apparent KD of MS2 coat protein of 90 nM or higher.
Result block: NO

* * *

# maps each entry to its apparent KD of MS2 coat protein
# Tested on: MS2 coat protein
# method-description: apparent KD of MS2 coat protein; designed switch direction (-1 OFF switch, 1 ON switch): -1; higher = weaker reporter binding
# setup-conditions: input ligand: FMN 200 uM
Hi! Could you send only the number? It should be in nM, unit omitted.

Solved cases (3 shown):
biopolymer-sequence	system-name	measure-name	measurement-units	meas-value
GGCAAACAUGAGGAUCACCCAUGUCAGGAUAUUAGGCGAUCGUCGAAAGACGAUAGCCUGAGAAGGGACAUGCC [Eli x1 4.16] (Eterna round: R97, puzzle: Exclusion 1)	MS2 coat protein	apparent KD of MS2 coat protein	nM	238
CUGUUCCGUGUAGGAUAUGCAUAUUCUCAUUAUGCAGAAGGACAUGAGGAUCACCCAUGUAUGUUAUUAUCAUGUGUUACAUGC [Design 7] (Eterna round: R96, puzzle: Exclusion NG 1)	MS2 coat protein	apparent KD of MS2 coat protein	nM	220
CUGGACCCGGCAGGAUAUAUUGUGGGCGGGCGUGGAACGACAUGAGGAUCACCCAUGUGAUUGAGGUAGAAGGGCCGAGAGGUC [Excl-NG2-LRO20] (Eterna round: R96, puzzle: Exclusion NG 2)	MS2 coat protein	apparent KD of MS2 coat protein	nM	38.5

Query block: // Input: GCAAGCUUAAUCACUAUGAACAUGAGGAUCACCCAUGUAUAAGGUAAUACUUUUGGGCCCUUUAUUACUCGUCUUAU [JR_STOV1_Sub030] (Eterna round: R97, puzzle: Sensor, turn-off variant 1) . Output its apparent KD of MS2 coat protein only.
Result block: 61.3

Query block: Return value of apparent KD of MS2 coat protein for input CGCGAACAUGAGGAUCACCCAUGUGAGGAUAUCAUGCUUCGUAGUAAACUACGAAGUGUGAGAAGGCACAUGCG [Omei Ex1 D5] (Eterna round: R97, puzzle: Exclusion 1) , no commentary.
Result block: 297

* * *

Listed here: items and their measured apparent KD of MS2 coat protein.
# System: MS2 coat protein
# method-description: apparent KD of MS2 coat protein; designed switch direction (-1 OFF switch, 1 ON switch): -1; higher = weaker reporter binding
# setup-conditions: Eterna round: R95; input ligand: FMN 200 uM
# number only, unit nM dropped from output

biopolymer-sequence	system-name	apparent KD of MS2 coat protein, nM
UAACACCGAGGAUAUACAUUUCUCAUAAGGUGCAAAACCGCACAUGAGGAUCACCCAUGUAGAAGGCGGCAAAU [Enrabeange] (puzzle: Exclusion 2)	MS2 coat protein	32
AAUAUGUGAGGAUAUGCUUUAAGAAGAAUGAGUUUGAAAUAACAUGAGGAUCACCCAUGUAGAAGGCGCUAAAA [Lollin - Beta 1] (puzzle: Exclusion 2)	MS2 coat protein	19.4
AGAGUGUGAGGAUAUAUGGUGAAGGUGAAGAGAGAGGAGGAGUAGAAGGUACAUGAGGAUCACCCAUGUUUGGA [JR_Exclu4_Sub075] (puzzle: Exclusion 4)	MS2 coat protein	32.1
CUAGUCCGAGGAUAUAUUAUGUGAAACAUGAGGAUCACCCAUGUAAUAUGAUGGAAAUAAAUAGAAGGCGGACUAG [Mat - Exclusion 5 - JL mod - D33] (puzzle: Exclusion 5)	MS2 coat protein	25.7

Query block: Look up MS2 coat protein data: apparent KD of MS2 coat protein of AUAUUAAUAUAGGAUAUCGAAAUUAUUAAUUAUCGAGAAGGAUAAACAUGAGGAUCACCCAUGUGGUAUCAUGG [Mat - Exclusion 6 - JL Mod - D41] (puzzle: Exclusion 6) , then report it.
Result block: 257

Query block: Please report the measured apparent KD of MS2 coat protein for CUCCUCGUGGCGCCUAAACACAUGAGGAUCACCCAUGUACAGGCUUUUUGCCGUCUUACAAUAAAACCGAGGAUACG [Inveon] (puzzle: Sensor v3, turn-off variant 1) tested on MS2 coat protein.
Result block: 19.8

Query block: Please look at UAAUAAAGUGUGAGGAUAUGCUGGUCCAUAGAUCAGCAGAAGGCACAUGAGGAUCACCCAUGUAAUAUAUAAAU [Mat - Exclusion 4 - JL Mod - D57] (puzzle: Brourd's mod of Exclusion 4) and tell me its recorded apparent KD of MS2 coat protein on MS2 coat protein.
Result block: 199

Query block: // fetch apparent KD of MS2 coat protein; item: UGCUAGUCAGGAUAUACGAACAUGUCAAAAGACGUGAAGGGACAUGAGGAUCACCCAUGUAGAAGGGACUAGCU [salish99_ex2_r3_006] (puzzle: Exclusion 2) ; system: MS2 coat protein
Result block: 165

Query block: Provide apparent KD of MS2 coat protein, tested on MS2 coat protein, for AAUAAGUGAGGAUAUACGUCUGGACCCGGGAGGGAAAUAAAACAUGAGGAUCACCCAUGUAGAAGGCACAAUAA [Excls2-III] (puzzle: Exclusion 2) .
Result block: 17.5

Query block: Send back MS2 coat protein apparent KD of MS2 coat protein of CUAGAUCUUCGGAUCUAGUACAUGAGGAUCACCCAUGUGACGAGUUACAUGUUUUACAAGCUUUUUGCUCGUCUUAU [Sensor v3 - Turn-off variant 1 - 13] (puzzle: Sensor v3, turn-off variant 1) only.
Result block: 39.4

All values here come from the supplement of paper PMC9170038.
